Where do the numbers come from? From patent US7132435B2.

Tested on: human peripheral blood mononuclear cells
assayExplanation: TNFα release from LPS-stimulated human peripheral blood mononuclear cells (TNFα screen)
Assay type: cell-based
conditionSet: PBMC, 18 hours incubation, TNFα in supernatant by ELISA
Experimental: Venous blood is collected from healthy volunteers and the mononuclear cells purified by centrifugation through Histopaque (Ficoll) cushions. TNFα production from these cells is stimulated by addition of lipopolysaccharide. After 18 hours incubation in the presence of LPS, the cell supernatant is removed and the concentration of TNFα in the supernatant determined by ELISA. Addition of PDE4 inhibitors reduces the amount of TNFα produced. […]
endpointLabel: pIC50
// pIC50 here means minus log10 of the molar concentration (mol/L)

O=C(N[C@H]1CC[C@@H](NC(=O)c2cccn3ccnc23)CC1)c1cc(F)cnc1Oc1ccc2c(c1)SCC2 [Example 1]	9.22

// next entry
*Q* Supply reported pIC50 belonging to this compound: Cc1ccc(C(=O)N[C@H]2CC[C@@H](NC(=O)c3cc(F)cnc3Oc3ccc4c(c3)SCC4)CC2)c(O)c1 [Example 3]
*A* 9.10
